Data origin: patent US20240254130A1

- test: Phase 1 single and multiple ascending dose study (safety, tolerability, pharmacokinetics)
- Format: in vivo, human
- protocol conditions: human, plasma; single oral doses 15-200 mg, fasting, healthy adult subjects; given as monophosphate salt; read-out: median Tmax
readout: Tmax

query: Give recorded Tmax. C[C@](N)(c1ccc(F)cc1)c1cnc(N2CCN(c3ncnn4cc(-c5cnn(CCO)c5)cc34)CC2)nc1
result: 1.5 to 6 h

* * *

- test: Solubility of Compound (I) free base in solvents at 50° C.
- Format: physicochemical
- protocol conditions: organic solvent or mixture, t-BuOH, sample 83-1, read-out: Solubility (mg/mL) at 50° C.
readout: solubility

query: Please report solubility for the following compound: C[C@](N)(c1ccc(F)cc1)c1cnc(N2CCN(c3ncnn4cc(-c5cnn(CCO)c5)cc34)CC2)nc1
result: < 2.6 mg/mL
